Below, each of the compounds is paired with its reported Ratio of the control reporter (RES): test reporter (MUG) value.
Target: B. subtilis RNAP (Bacillus subtilis, UniProt P37870+P37871)
Construct: endogenous in cells; host or cells: Bacillus subtilis strain PL37 (built from strain 168)
Sequence (P37871 whole entry): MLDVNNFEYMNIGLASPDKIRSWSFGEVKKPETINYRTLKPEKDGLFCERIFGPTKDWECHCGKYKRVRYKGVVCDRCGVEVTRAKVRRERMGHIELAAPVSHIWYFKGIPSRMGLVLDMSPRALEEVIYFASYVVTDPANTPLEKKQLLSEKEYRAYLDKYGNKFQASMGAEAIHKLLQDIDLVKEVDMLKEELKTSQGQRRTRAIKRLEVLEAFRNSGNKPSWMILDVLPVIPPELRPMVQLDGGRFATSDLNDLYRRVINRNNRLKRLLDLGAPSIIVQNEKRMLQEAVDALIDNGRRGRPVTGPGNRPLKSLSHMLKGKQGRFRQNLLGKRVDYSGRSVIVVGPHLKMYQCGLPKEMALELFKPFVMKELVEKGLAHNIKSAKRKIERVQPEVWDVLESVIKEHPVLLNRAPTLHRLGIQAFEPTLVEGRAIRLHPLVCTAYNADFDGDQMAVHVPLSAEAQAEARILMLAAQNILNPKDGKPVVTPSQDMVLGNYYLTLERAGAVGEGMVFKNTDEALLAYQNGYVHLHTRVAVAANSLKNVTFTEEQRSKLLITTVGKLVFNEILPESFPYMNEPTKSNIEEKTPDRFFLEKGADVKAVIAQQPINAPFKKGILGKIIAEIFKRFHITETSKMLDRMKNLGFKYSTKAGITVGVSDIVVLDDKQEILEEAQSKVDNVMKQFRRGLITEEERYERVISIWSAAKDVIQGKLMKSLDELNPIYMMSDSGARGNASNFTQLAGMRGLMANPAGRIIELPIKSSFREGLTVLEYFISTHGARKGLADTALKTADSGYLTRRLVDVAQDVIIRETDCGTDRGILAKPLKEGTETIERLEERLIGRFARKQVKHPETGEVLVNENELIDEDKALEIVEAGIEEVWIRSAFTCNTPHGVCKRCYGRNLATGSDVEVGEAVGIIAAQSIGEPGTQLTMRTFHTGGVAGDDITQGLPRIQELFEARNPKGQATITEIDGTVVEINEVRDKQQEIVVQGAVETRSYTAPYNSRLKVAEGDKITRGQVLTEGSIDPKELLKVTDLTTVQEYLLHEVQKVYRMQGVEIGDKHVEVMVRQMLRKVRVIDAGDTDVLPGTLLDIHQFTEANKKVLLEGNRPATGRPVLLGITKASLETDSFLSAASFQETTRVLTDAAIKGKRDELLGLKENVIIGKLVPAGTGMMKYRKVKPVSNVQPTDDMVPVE
Sequence (P20429 whole entry, further chain): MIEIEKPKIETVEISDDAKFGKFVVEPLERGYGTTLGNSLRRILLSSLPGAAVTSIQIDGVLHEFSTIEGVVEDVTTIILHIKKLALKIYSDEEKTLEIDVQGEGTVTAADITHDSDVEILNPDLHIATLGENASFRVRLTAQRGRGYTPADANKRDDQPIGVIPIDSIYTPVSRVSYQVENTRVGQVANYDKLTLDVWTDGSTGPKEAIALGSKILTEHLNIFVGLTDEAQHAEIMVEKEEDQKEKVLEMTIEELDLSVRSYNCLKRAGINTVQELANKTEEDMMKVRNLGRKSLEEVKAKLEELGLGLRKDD
Sequence (O35011 whole entry, further chain): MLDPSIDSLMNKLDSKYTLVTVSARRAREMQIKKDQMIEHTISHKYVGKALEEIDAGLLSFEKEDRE
Sequence (P37870 whole entry): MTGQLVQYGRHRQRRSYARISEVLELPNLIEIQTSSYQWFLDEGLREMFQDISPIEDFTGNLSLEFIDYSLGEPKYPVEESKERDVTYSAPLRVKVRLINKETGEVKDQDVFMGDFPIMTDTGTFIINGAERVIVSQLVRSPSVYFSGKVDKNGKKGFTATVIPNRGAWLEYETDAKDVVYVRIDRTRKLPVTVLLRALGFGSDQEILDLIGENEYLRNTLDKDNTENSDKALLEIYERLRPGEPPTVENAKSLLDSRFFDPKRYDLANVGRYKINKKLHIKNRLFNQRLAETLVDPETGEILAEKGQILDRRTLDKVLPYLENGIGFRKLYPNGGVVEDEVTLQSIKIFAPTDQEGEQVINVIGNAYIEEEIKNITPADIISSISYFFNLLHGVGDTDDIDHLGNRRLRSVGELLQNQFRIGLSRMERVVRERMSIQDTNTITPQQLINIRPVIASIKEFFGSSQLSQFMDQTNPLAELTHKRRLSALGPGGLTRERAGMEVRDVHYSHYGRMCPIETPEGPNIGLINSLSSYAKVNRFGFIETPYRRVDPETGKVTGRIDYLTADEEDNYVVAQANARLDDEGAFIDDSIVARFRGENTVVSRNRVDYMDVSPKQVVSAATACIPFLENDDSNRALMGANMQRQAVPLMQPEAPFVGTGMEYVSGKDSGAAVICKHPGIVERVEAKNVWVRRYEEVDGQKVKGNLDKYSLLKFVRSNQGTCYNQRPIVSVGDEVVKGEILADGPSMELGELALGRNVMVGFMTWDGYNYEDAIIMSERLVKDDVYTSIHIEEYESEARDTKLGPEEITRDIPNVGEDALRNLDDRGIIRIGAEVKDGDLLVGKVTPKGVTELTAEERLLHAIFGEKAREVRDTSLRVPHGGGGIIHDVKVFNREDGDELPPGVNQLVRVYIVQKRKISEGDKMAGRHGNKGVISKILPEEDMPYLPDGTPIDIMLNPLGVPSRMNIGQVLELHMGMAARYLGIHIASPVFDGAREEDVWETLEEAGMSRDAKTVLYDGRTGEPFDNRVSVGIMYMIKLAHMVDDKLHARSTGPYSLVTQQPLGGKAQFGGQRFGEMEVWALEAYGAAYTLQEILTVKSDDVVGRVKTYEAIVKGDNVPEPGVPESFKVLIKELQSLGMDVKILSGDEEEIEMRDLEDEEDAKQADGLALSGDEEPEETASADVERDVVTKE
Experiment: Dual reporter assay in strain PL37: test reporter Pxyl-lacZ and ratio of control to test reporter (RES:MUG)
Type: cell-based
Details: strain PL37; Dilution Number 9; DMSO control […]
Positions of bridges follow the written chain, without caps; N, C: chain ends. Non-standard residues stand in square brackets, D forms with d. Residues, ends and D or L forms follow the SMILES beside them. *: point of attachment. Ileψ(thiazoline)Cys = CC[C@H](C)[C@H](N)C1=N[C@H](C(=O)*)CS1; dOrn = NCCC[C@@H](N)C(=O)O
Give the figure only, with no unit attached.

Examples with their reported Ratio of the control reporter (RES): test reporter (MUG) follow.
Query: Item CC1(C)S[C@@H]2[C@H](NC(=O)[C@H](N)c3ccccc3)C(=O)N2[C@H]1C(=O)O with B. subtilis RNAP (Bacillus subtilis, UniProt P37870+P37871) - Ratio of the control reporter (RES): test reporter (MUG)?
Response: 1.16

Query: Check CC[C@H](C)[C@H](N)C1=N[C@H](C(=O)N[C@@H](CC(C)C)C(=O)N[C@H](CCC(=O)O)C(=O)N[C@H](C(=O)N[C@H]2CCCCNC(=O)[C@H](CC(N)=O)NC(=O)[C@@H](CC(=O)O)NC(=O)[C@H](Cc3cnc[nH]3)NC(=O)[C@@H](Cc3ccccc3)NC(=O)[C@H]([C@@H](C)CC)NC(=O)[C@@H](CCCN)NC2=O)[C@@H](C)CC)CS1 [Bacitracin] ({Ileψ(thiazoline)Cys}-L[dE]IK[dOrn]I[dF]H[dD]N; lactam 4-C) too.
Response: 1.09

Query: Another compound to look at: CC[C@H]1OC(=O)[C@H](C)[C@@H](O[C@H]2C[C@@](C)(OC)[C@@H](O)[C@H](C)O2)[C@H](C)[C@@H](O[C@@H]2O[C@H](C)C[C@H](N(C)C)[C@H]2O)[C@](C)(O)C[C@@H](C)C(=O)[C@H](C)[C@@H](O)[C@]1(C)O
Response: 1.56

Could you now look at the following compound, please?
Query: Query Ratio of the control reporter (RES): test reporter (MUG) on B. subtilis RNAP (Bacillus subtilis, UniProt P37870+P37871) for CNC(=O)[C@@H](C)[C@H]1C(=O)/C(=C(O)/C=C/C(C)=C/[C@@H](C)[C@H]2O[C@@]3(C)O[C@H](C=C[C@@]34CO4)[C@@H]2C)C(=O)N1[C@@H]1CC[C@H](O)[C@H](C)O1
Response: 1.27

---

Quick list: Ratio of the control reporter (RES): test reporter (MUG) per entry.
Molecular target: B. subtilis RNAP (Bacillus subtilis, UniProt P37870+P37871)
Construct: endogenous in cells; host or cells: Bacillus subtilis strain PL37 (built from strain 168)
Assay: Dual reporter assay in strain PL37: test reporter Pxyl-lacZ and ratio of control to test reporter (RES:MUG)
Format: cell-based
Details: strain PL37; Dilution Number 11 (lowest concentration tested: 0.125, 0.016 or 0.0005 μg/ml depending on antibiotic); DMSO control […]

Look over these answered cases.
Query: Can you look up the measured Ratio of the control reporter (RES): test reporter (MUG) of CN[C@@H]1[C@H](O)[C@H](NC)[C@H]2O[C@@]3(O)C(=O)C[C@@H](C)O[C@H]3O[C@@H]2[C@H]1O [Spectinomycin] for me?
Response: 1.13

Query: Check CO[C@@H]1[C@@H](OC(N)=O)[C@@H](O)[C@H](Oc2ccc3c(O)c(NC(=O)c4ccc(O)c(CC=C(C)C)c4)c(=O)oc3c2C)OC1(C)C [Novobiocin] too.
Response: 1.19

Query: Try CC1(C)S[C@@H]2[C@H](NC(=O)[C@H](N)c3ccccc3)C(=O)N2[C@H]1C(=O)O [Ampicillin] next.
Response: 1.06

Shifting focus to the compound that follows.
Query: Ratio of the control reporter (RES): test reporter (MUG) lookup needed for CCn1cc(C(=O)O)c(=O)c2cc3c(cc21)OCO3 [Oxolinic Acid] , thanks.
Response: 1.17
